Numbers sourced from PubChem BioAssay AID2060483.

Reported viability, T/C is given for each of the following compounds.
Tested on: K24384-001-R-PDC complex spheroids, viability;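 also: spheroids exposed to compounds for seven days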
Assay: Anticancer human tumor K24384-001-R-PDC patient-derived pancreatic adenocarcinoma cell line growth inhibition [GQUAD]
Conditions: second compound 3.16 µM; first compound 0.1 µM; active compounds read low

compound: CC1COCCN1c1cc(C2(O)CC3CCC(C2)O3)c2cnn(-c3ccn[nH]3)c2n1 (stereo not drawn) + Cc1cnc(CNC(=O)c2c(=O)c3ccc(N4CCCN(C)CC4)nc3n3c2sc2ccccc23)cn1
display.unit: %
viability, T/C: 35.7

compound: Nc1ccn(C2OC(CO)C(O)C2(F)F)c(=O)n1 (stereo not drawn) + CN(C)c1ccc(Nc2c3ccc(NC(=O)CCN4CCCC4)cc3nc3cc(NC(=O)CCN4CCCC4)ccc23)cc1
display.unit: %
viability, T/C: 57.6

compound: C=CC(=O)N1CCN(c2nc(=O)n(-c3c(C)ccnc3C(C)C)c3nc(-c4c(O)cccc4F)c(F)cc23)C(C)C1 (stereo not drawn) + CN(C)c1ccc(Nc2c3ccc(NC(=O)CCN4CCCC4)cc3nc3cc(NC(=O)CCN4CCCC4)ccc23)cc1
display.unit: %
viability, T/C: 100
